Target: human PKR1 receptors (Homo sapiens)
Assay: PKR1 antagonist assay: block of PK1-mediated intracellular calcium release (FLIPR Tetra, Calcium 5 dye)
Settings: RBL2H3 cells expressing human PKR1; 10 min pre-incubation, stimulation with PK1 at EC80; calcium fluorescence
pIC50: −log10 of the molar value.
MEASURED QUANTITY: pIC50

// known answers, use as guide
STRUCTURE SMILES STRING | TARGET SYSTEM | REPORTED
Cc1nn(C)c(Cl)c1S(=O)(=O)N1CCC(Oc2ccc(Cl)cc2)CC1 | human PKR1 receptors (Homo sapiens) | 5.54
Cc1nn(C)c(Cl)c1S(=O)(=O)N1CCC(Cc2ccc(Cl)cc2)CC1 | human PKR1 receptors (Homo sapiens) | 5.69
Cc1nn(C)c(C)c1S(=O)(=O)N1CCC(Oc2ccc(C#N)cc2)CC1 | human PKR1 receptors (Homo sapiens) | 5.14
Cc1nn(C)c(C)c1S(=O)(=O)N1CCC(Oc2c(F)cc(Cl)cc2F)CC1 | human PKR1 receptors (Homo sapiens) | 6.00
Cc1cccc(C)c1OC1CCN(S(=O)(=O)c2c(C)n[nH]c2C)CC1 | human PKR1 receptors (Homo sapiens) | 5.49

a: COc1c(F)cc(OC2CCN(S(=O)(=O)c3c(C)nn(C)c3C)CC2)cc1F
b: COc1cc(Cl)cnc1OC1CCN(S(=O)(=O)c2c(C)nn(C)c2C)CC1
Qu. Looking only at measured pIC50, which entry is lower, a or b ? Please indicate the selected item by its label.
Ans. a

A: Cc1n[nH]c(C)c1S(=O)(=O)N1CCC(O)(Cc2ccc(Cl)cc2)CC1
B: COc1cc(Cl)ccc1CC1(OC)CCN(S(=O)(=O)c2c(C)n[nH]c2C)CC1
Qu. Please indicate which item has the smaller measured pIC50: A versus B Output the label that corresponds to your choice.
Ans. B

---

Molecular target: human PKR1 receptors (Homo sapiens, UniProt Q8TCW9)
Sequence (Q8TCW9 whole entry): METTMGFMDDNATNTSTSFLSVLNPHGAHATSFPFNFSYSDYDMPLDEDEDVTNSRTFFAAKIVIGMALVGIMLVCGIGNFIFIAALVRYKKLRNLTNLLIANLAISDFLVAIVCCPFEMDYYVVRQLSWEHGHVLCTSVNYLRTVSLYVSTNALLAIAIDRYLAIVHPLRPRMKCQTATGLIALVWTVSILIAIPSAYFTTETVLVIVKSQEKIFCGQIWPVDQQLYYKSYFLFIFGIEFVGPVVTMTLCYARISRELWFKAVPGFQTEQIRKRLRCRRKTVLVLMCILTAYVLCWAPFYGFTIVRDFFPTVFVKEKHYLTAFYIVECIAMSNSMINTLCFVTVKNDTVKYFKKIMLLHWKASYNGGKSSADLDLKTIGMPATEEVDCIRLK
Assay: PKR1 antagonist assay: block of PK1-mediated intracellular calcium release (FLIPR Tetra, Calcium 5 dye)
Settings: RBL2H3 cells expressing human PKR1; 10 min pre-incubation, stimulation with PK1 at EC80; calcium fluorescence
pIC50: −log10 of the molar value.
MEASURED QUANTITY: pIC50

1: Cc1n[nH]c(C)c1S(=O)(=O)N1CCC(Oc2ccc(Cl)c(Cl)c2)CC1 [Example 2]
2: Cc1n[nH]c(C)c1S(=O)(=O)N1CCC(O)(Cc2ccc(Cl)c(Cl)c2)CC1 [Example 70]
Qu. Looking only at measured pIC50, which entry is lower, 1 or 2 ? Selection: enter the item's label.
Ans. 2
(2: 5.06, 1: 6.00)

1: Cc1nn(C)c(C)c1S(=O)(=O)N1CCC(Oc2ccc(Br)cc2F)CC1 [Example 14]
2: Cc1nn(C)c(C)c1S(=O)(=O)N1CCC(Oc2ccc(OC(F)(F)F)cc2)CC1 [Example 3]
3: Cc1n[nH]c(C)c1S(=O)(=O)N1CCC(Oc2ccc(Cl)cc2C(F)(F)F)CC1 [Example 40]
4: Cc1nn(C)c(C)c1S(=O)(=O)N1CCC(Oc2ccc(C(F)(F)F)cc2)CC1 [Example 12]
Qu. Returns the items ordered by pIC50, from maximum to minimum. Response field: labels, in requested order.
Ans. 3, 1, 2, 4

---

Biological target: human PKR1 receptors (Homo sapiens)
Test: PKR1 antagonist assay: block of PK1-mediated intracellular calcium release (FLIPR Tetra, Calcium 5 dye)
Conditions: RBL2H3 cells expressing human PKR1; 10 min pre-incubation, stimulation with PK1 at EC80; calcium fluorescence
MEASURED QUANTITY: IC50 (nM)

// solved cases for IC50 follow
COMPOUND | TARGET SYSTEM | UNIT INFO | IC50
Cc1n[nH]c(C)c1S(=O)(=O)N1CCC(Oc2ccc(Cl)cc2)CC1 [Example 8] | human PKR1 receptors (Homo sapiens) | nM | 1450
CCOC(=O)C1(Cc2ccc(Br)cc2)CCN(S(=O)(=O)c2c(C)n[nH]c2C)CC1 [Example 62] | human PKR1 receptors (Homo sapiens) | nM | 680
Cc1n[nH]c(C)c1S(=O)(=O)N1CCC(Cc2ccc(Cl)c(F)c2)CC1 [Example 71] | human PKR1 receptors (Homo sapiens) | nM | 780

P: COCC1(Cc2ccc(Cl)cc2)CCN(S(=O)(=O)c2c(C)nn(C)c2C)CC1 [Example 60]
Q: COC(c1ccc(Cl)cc1)C1CCN(S(=O)(=O)c2c(C)n[nH]c2C)CC1 (single isomer, unassigned) [Example 98]
R: COc1cc(Cl)ccc1CC1(OC)CCN(S(=O)(=O)c2c(C)nn(C)c2C)CC1 [Example 87]
S: Cc1n[nH]c(C)c1S(=O)(=O)N1CCC(C(c2ccc(Cl)cc2)C(F)F)CC1 (centres unmarked) [Example 111]
Qu. # desc sort on IC50 across 4 compounds Please express your ranking as an ordered list of the labels.
Ans. R, P, S, Q
